These entries and their values trace back to ChEMBL document CHEMBL5257060.

TEST DETAILS: Apparent permeability across apical to basolateral side in human Caco-2 cells by PAMPA assay
Format: ADME, cell-based
READOUT TYPE: Papp A→B

>>> recorded_measurement("CC#CCn1c(N2CCC[C@H](NC(=O)CCOCCOCCOCCOCCOCCOCCN(C)C(=O)CCc3cc(Cl)c(Oc4ccncc4C(=O)N4CCN(C5CC5)c5ccccc54)cc3Cl)C2)nc2c1c(=O)n(Cc1nc(C)c3ccccc3n1)c(=O)n2C")
"0.03 ×10⁻⁶ cm/s"

----------
TEST DETAILS: Drug recovery in feces of mouse at 5 mg/kg, po
Assay type: ADME, organism-based
COND: faeces, read-out: Drug recovery
READOUT TYPE: dose excreted (%)

>>> recorded_measurement("CO[C@@H]1CC[C@@]2(C)[C@H](CC(OS(=O)(=O)[O-])[C@@H]3[C@@H]2CC[C@]2(C)[C@@H]([C@H](C)CCc4nnn[nH]4)CC[C@@H]32)C1.[Na+] (stereo partly specified)")
89
